Just for reference, the NIST ThermoML archive (doi:10.1021/je0503554) is where these values come from.

Experiment: activity coefficient (dimensionless); of the first substance listed, at infinite dilution; xn = mol fraction of the nth substance listed
Settings: 312.45 K; Liquid; Chromatography; x1 = 0
List of activity coefficient values.
Respond with the number and no other words.

[[record]]
molecule = "C=CCCCCC [1-heptene] + CCCCCC[n+]1ccn(C)c1.O=S(=O)([N-]S(=O)(=O)C(F)(F)F)C(F)(F)F"
recordedmeasurement = 6.18

[[record]]
molecule = "ClC(Cl)Cl [trichloromethane] + CCCCCC[n+]1ccn(C)c1.O=S(=O)([N-]S(=O)(=O)C(F)(F)F)C(F)(F)F"
recordedmeasurement = 0.68

[[record]]
molecule = "C=CCCCCCC [oct-1-ene] + CCCCCC[n+]1ccn(C)c1.O=S(=O)([N-]S(=O)(=O)C(F)(F)F)C(F)(F)F"
recordedmeasurement = 8.43


So what's the measured activity coefficient for this one? CCO [ethanol] + CCCCCC[n+]1ccn(C)c1.O=S(=O)([N-]S(=O)(=O)C(F)(F)F)C(F)(F)F
1.71

Same question, CCCO [propan-1-ol] + CCCCCC[n+]1ccn(C)c1.O=S(=O)([N-]S(=O)(=O)C(F)(F)F)C(F)(F)F this time
2.15

Then CO [methanol] + CCCCCC[n+]1ccn(C)c1.O=S(=O)([N-]S(=O)(=O)C(F)(F)F)C(F)(F)F ?
1.34

C=CCCC [1-pentene] + CCCCCC[n+]1ccn(C)c1.O=S(=O)([N-]S(=O)(=O)C(F)(F)F)C(F)(F)F ?
3.54

Repeat for the following molecule: CCCCC [pentane] + CCCCCC[n+]1ccn(C)c1.O=S(=O)([N-]S(=O)(=O)C(F)(F)F)C(F)(F)F
5.44
